Test system: Italian ryegrass (Lolium multiflorum)
Assay: Test C postemergence
Assay type: in vivo
Settings: 250 g ai/ha, scale 0 to 100
quantity name: Plant response rating, Ryegrass, Italian
Numbers only.

CCOC(=O)c1nc(-c2ccc(Cl)cc2)nc(N)c1Cl; 45

Dear colleague, could you send me Plant response rating, Ryegrass, Italian for each of the items below? Thanks.
1. CCOC(=O)C(Cl)(Cl)c1nc(C2CC2)nc(N)c1Br
2. Nc1nc(C2CC2)nc(C(=O)OCc2ccccc2)c1Cl
3. COC(=O)c1nc(C(C)C)nc(N)c1Br
4. COC(=O)c1nc(C2CC2)nc(N)c1Br

Result:
[60, 25, 35, 60]
